Assay: NCI Yeast Anticancer Drug Screen. Data for the CLN2oe strain (AID 163)
Conditions: S. cerevisiae CLN2oe strain, at 100.0 µM
This is part of a sample that, as a whole, favours compounds with a hit. Of some 79,000 tested, about 15% had one in any assay. Activity calls are given as the source filed them. No stated cut-off is given here; in the data, active means growth inhibition above about 70%; inactive means the rest.
Possible outcomes: active, inactive

- COMPOUND: "COc1nc2c(c(=O)n1C)N=C(c1ccccc1)[C@H](C(CC(=O)c1ccccc1)c1ccccc1)C(c1ccccc1)N2 (stereo partly drawn)"
  DISCRETE_LABEL: "inactive"
- COMPOUND: "NC1=NNC2(C(N)=N1)c1ccccc1-c1ccccc12"
  DISCRETE_LABEL: "active"
- COMPOUND: "Clc1ccc(NCNC2Nc3ccccc3N2)cc1Cl"
  DISCRETE_LABEL: "active"
- COMPOUND: "Nc1ccn(C2OC(COP(=O)(O)O)C(O)C2O)c(=O)n1 (stereo not drawn)"
  DISCRETE_LABEL: "inactive"
- COMPOUND: "Cc1nc2ccc(N=NN(C)C)cc2[nH]1"
  DISCRETE_LABEL: "active"
- COMPOUND: "CCCCC/C(=C(\\C#N)C(=O)OCC)c1ccccc1"
  DISCRETE_LABEL: "inactive"
- COMPOUND: "NC(N)=NS(=O)(=O)c1ccc(Nc2c3ccccc3nc3c(C(=O)NCCO)cccc23)cc1"
  DISCRETE_LABEL: "inactive"
- COMPOUND: "CCC(C)OC(=O)Nc1ccc(C)c(NC(=O)OC(C)CC)c1 (stereo not drawn)"
  DISCRETE_LABEL: "active"
- COMPOUND: "Cc1ccc(NC(=O)/C(CC2N=c3c(ccc4c(O)c5ccccc5c(O)c34)=NC2O)=N/NC(C)(C)C)cc1 (stereo not drawn)"
  DISCRETE_LABEL: "inactive"
- COMPOUND: "CC(=O)OC1CC2C(C)(C)C(=O)C=C[C@]2(C)C2CCC3(C)C(=CCC3[C@H](CO)C[C@H](O)C(=O)C(C)(C)O)[C@]12C (stereo partly drawn)"
  DISCRETE_LABEL: "active"
- COMPOUND: "O=c1ccc2ccccc2c2ccccc12"
  DISCRETE_LABEL: "active"
- COMPOUND: "COC(=O)C1=C(C(=O)OC)C(C(=O)OC)C(C(=O)OC)C(C(=O)OC)(C(=O)OC)C(C(=O)OC)=C1C(=O)OC (stereo not drawn)"
  DISCRETE_LABEL: "inactive"
- COMPOUND: "CN(C)C=NC1CCC(C(C)(C)C)CC1 (stereo not drawn)"
  DISCRETE_LABEL: "active"
- COMPOUND: "C#CCN(Cc1ccc2nc(N)[nH]c(=O)c2c1)c1ccc(C(=O)NC(CCC(=O)O)C(=O)O)cc1 (stereo not drawn)"
  DISCRETE_LABEL: "inactive"
- COMPOUND: "O=C1CSC(c2cccc(Cl)c2)N1c1ccc(-c2ccc(-n3c(-c4ccccc4)nc4ccccc4c3=O)cc2)cc1 (stereo not drawn)"
  DISCRETE_LABEL: "inactive"
- COMPOUND: "CCC(C)NC1=NCC(C)S1 (stereo not drawn)"
  DISCRETE_LABEL: "inactive"
- COMPOUND: "OC(CCNCc1ccccc1)c1ccc2ccccc2c1 (stereo not drawn)"
  DISCRETE_LABEL: "active"
- COMPOUND: "CCOc1c(N=Nc2ccccc2OC)c(C)nn1C(=S)S"
  DISCRETE_LABEL: "inactive"
- COMPOUND: "CCCCCCOC(=O)NCCOC(=O)Nc1ccccc1"
  DISCRETE_LABEL: "inactive"
- COMPOUND: "CCCCCOC(=S)SC(=O)OCC"
  DISCRETE_LABEL: "inactive"
- COMPOUND: "N#CC(C#N)=NNc1ccc(S(=O)(=O)O)cc1"
  DISCRETE_LABEL: "inactive"
- COMPOUND: "O=[N+]([O-])c1cccc2nc3ccccc3c(NCCC[N+]3([O-])CCCCC3)c12"
  DISCRETE_LABEL: "active"
- COMPOUND: "CCCCN(CCCC)CCC(O)c1cc2c(Cl)cc(Cl)cc2c2cc(C(F)(F)F)ccc12 (stereo not drawn)"
  DISCRETE_LABEL: "active"
- COMPOUND: "Cn1c(=O)c2c(nc(N)n2C2OC(CO)C(O)C2O)n(C)c1=O (stereo not drawn)"
  DISCRETE_LABEL: "inactive"
- COMPOUND: "COC(=O)/C=C(/C(=O)OC)C(Cl)(Cl)Cl"
  DISCRETE_LABEL: "active"
- COMPOUND: "CCCCc1nnc(NS(=O)(=O)c2ccc(C)cc2)s1"
  DISCRETE_LABEL: "active"
- COMPOUND: "NC(=S)NC(=S)Nc1ccccc1"
  DISCRETE_LABEL: "inactive"
- COMPOUND: "CCN(CC)Cc1cc(Nc2c3ccccc3nc3c2[nH]c2ccccc23)cc(CN(CC)CC)c1O"
  DISCRETE_LABEL: "inactive"
- COMPOUND: "Nc1nc(N)c2nc(CNc3ccc(C(=O)NC(CCC(=O)O)C(=O)O)cc3F)cnc2n1 (stereo not drawn)"
  DISCRETE_LABEL: "inactive"
- COMPOUND: "COc1oc(C(=O)NC2CCCCC2)c(-c2ccc(Cl)cc2)c1S(=O)(=O)c1ccccc1"
  DISCRETE_LABEL: "active"
- COMPOUND: "COc1cc(/C=C2\\CCC/C(=C\\c3ccc(O)c(OC)c3)C2=O)ccc1O"
  DISCRETE_LABEL: "inactive"
- COMPOUND: "CCCCOP(=O)(CCCP(=O)(OCCCC)OCCCC)OCCCC"
  DISCRETE_LABEL: "active"
- COMPOUND: "Cc1ccc2c(c1)C1(SC(C)C(=O)N1c1ccc(Cl)cc1)C(=O)N2 (stereo not drawn)"
  DISCRETE_LABEL: "active"
- COMPOUND: "CN(C)c1ccc2c(SCC(=O)OCC(=O)[C@@]3(O)CC[C@H]4[C@@H]5CCC6=CC(=O)C=C[C@]6(C)[C@H]5C(=O)C[C@@]43C)c3ccc(N(C)C)cc3nc2c1"
  DISCRETE_LABEL: "active"
- COMPOUND: "COc1ccc(/C=C/C(=O)c2ccccc2)cc1OC"
  DISCRETE_LABEL: "active"
- COMPOUND: "Cc1ccc2c3ccc4c(c3n(C)c2c1)C(=O)C=CC4=O"
  DISCRETE_LABEL: "inactive"
- COMPOUND: "CC(C)c1ccc(NC(=S)NC(=O)c2ccccc2)cc1"
  DISCRETE_LABEL: "inactive"
- COMPOUND: "COc1cc([C@@H]2c3cc4c(cc3[C@@H](Nc3ccc(NC(=O)c5cc([N+](=O)[O-])cn5C)cc3)[C@H]3COC(=O)[C@H]23)OCO4)cc(OC)c1O"
  DISCRETE_LABEL: "active"
- COMPOUND: "CCCC/C=C/C(C)(C(=O)OCC)C(=O)OCC"
  DISCRETE_LABEL: "inactive"
- COMPOUND: "COc1cc2ccnc(-c3c4ccccc4c(N)c4c(OC)c(OC)ccc34)c2cc1OC"
  DISCRETE_LABEL: "inactive"
- COMPOUND: "CN(C)Cc1cc(N=Nc2ccc(Cl)cc2)ccc1OC(=O)c1ccccc1"
  DISCRETE_LABEL: "inactive"
- COMPOUND: "O=C1c2ccccc2C(=O)N1CCCC(=O)n1cc(F)c(=O)[nH]c1=O"
  DISCRETE_LABEL: "inactive"
- COMPOUND: "Cc1ccc(Sc2ccccc2N)cc1"
  DISCRETE_LABEL: "active"

Data provenance: PubChem BioAssay (NCI)
